Origin of the recorded values: patent US5876694A

experiment: Blocking experiment 1: co-injection of (dl)-vesamicol with radiotracer; format: in vivo, male Wistar rats; settings: rat, gonads, iv, Group 1: radiotracer alone, 60 min, read-out: Blocking study, gonads
TEST_READOUT: tissue uptake at 1 h (%ID/g)

[[record]]
compound = "O[C@@H]1CCN(Cc2cccc([125I])c2)C[C@H]1N1CCC(c2ccccc2)CC1 (single isomer, unassigned) [(-)-[^125 I]12h]"
numeric_result = 0.21


---

assay: Tissue distribution of radiotracer in rats; format: in vivo, male Wistar rats; conditions: rat, brain; 30 min, iv; read-out: Tissue distribution, brain
TEST_READOUT: tissue uptake at 0.5 h (%ID/g)

[[record]]
molecule = "O[C@@H]1CCN(Cc2cccc([125I])c2)C[C@H]1N1CCC(c2ccccc2)CC1 (single isomer, unassigned) [(-)-[^125 I]12h]"
numeric_result = 0.99


---

assay: Blocking experiment 1: co-injection of (dl)-vesamicol with radiotracer; assay type: in vivo, male Wistar rats; details: rat, blood, iv, Group 1: radiotracer alone, 60 min, read-out: Blocking study, blood
TEST_READOUT: tissue uptake at 1 h (%ID/g)

[[record]]
compound = "O[C@@H]1CCN(Cc2cccc([125I])c2)C[C@H]1N1CCC(c2ccccc2)CC1 (single isomer, unassigned) [(-)-[^125 I]12h]"
result_units = "%ID/g"
numeric_result = 0.09


---

assay: Tissue distribution of radiotracer in rats; type: in vivo, male Wistar rats; conditions: rat, muscle; 60 min, iv; read-out: Tissue distribution, muscle
TEST_READOUT: tissue uptake at 1 h (%ID/g)

[[record]]
compound = "O[C@@H]1CCN(Cc2cccc([125I])c2)C[C@H]1N1CCC(c2ccccc2)CC1 (single isomer, unassigned) [(-)-[^125 I]12h]"
result_units = "%ID/g"
numeric_result = 0.28


---

test: Tissue distribution of radiotracer in rats; assay type: in vivo, male Wistar rats; settings: rat, kidney; 5 min, iv; read-out: Tissue distribution, kidney
TEST_READOUT: tissue uptake at 5 min (%ID/g)

[[record]]
molecule = "O[C@@H]1CCN(Cc2cccc([125I])c2)C[C@H]1N1CCC(c2ccccc2)CC1 (single isomer, unassigned) [(-)-[^125 I]12h]"
test_readout = "tissue uptake at 5 min"
numeric_result = 3.71


---

assay: Tissue distribution of radiotracer in rats; assay type: in vivo, male Wistar rats; details: rat, lung; 5 min, iv; read-out: Tissue distribution, lung
TEST_READOUT: tissue uptake at 5 min (%ID/g)

[[record]]
compound = "O[C@@H]1CCN(Cc2cccc([125I])c2)C[C@H]1N1CCC(c2ccccc2)CC1 (single isomer, unassigned) [(-)-[^125 I]12h]"
test_readout = "tissue uptake at 5 min"
numeric_result = 5.9


---

Target protein (sequence): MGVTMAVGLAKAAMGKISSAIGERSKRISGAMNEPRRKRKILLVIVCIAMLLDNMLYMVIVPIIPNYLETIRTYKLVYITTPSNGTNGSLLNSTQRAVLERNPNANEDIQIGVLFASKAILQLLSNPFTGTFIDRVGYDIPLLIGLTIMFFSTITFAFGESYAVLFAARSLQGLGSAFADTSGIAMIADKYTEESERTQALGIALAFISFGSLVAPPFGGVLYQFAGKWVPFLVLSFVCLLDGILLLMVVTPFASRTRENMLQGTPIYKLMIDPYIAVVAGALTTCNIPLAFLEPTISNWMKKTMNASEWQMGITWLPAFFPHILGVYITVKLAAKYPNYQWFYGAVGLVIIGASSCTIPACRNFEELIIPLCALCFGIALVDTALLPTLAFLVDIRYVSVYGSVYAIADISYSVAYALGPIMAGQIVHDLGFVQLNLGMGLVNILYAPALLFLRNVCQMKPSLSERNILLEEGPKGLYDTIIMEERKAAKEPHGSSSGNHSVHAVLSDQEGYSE
TEST_READOUT: IC50 (nM)

[[record]]
compound = "O=C(c1ccccc1)N1CC[C@@H](O)[C@H](N2CCC(c3ccccc3)CC2)C1 [(-)-10a]"
numeric_result = 100

